Measured viability, T/C by item
# System: 624824-186-R-J2-PDC multicell spheroids, viability
# procedureSummary: Anticancer human tumor 624824-186-R-J2-PDC patient-derived colon adenocarcinoma cell line growth inhibition [PI3K]
# conditionParameters: second compound 0.0316 µM; first compound 1 µM; hits give low values
valueType: viability, T/C (%)

* CC(C)NCC(C(=O)N1CCN(c2ncnc3c2C(C)CC3O)CC1)c1ccc(Cl)cc1 (centres undefined) + CC(Nc1ccc2c(c1)OCCn1cc(N3C(=O)OCC3C(F)F)nc1-2)C(N)=O | 92.8
* CC1(C)CCC(Nc2ncc(C(F)(F)F)c(-c3c[nH]c4c(P(C)(C)=O)c(C#N)ccc34)n2)CN1 (centres undefined) + Cc1nc(NC(=O)N2CCCC2C(N)=O)sc1-c1ccnc(C(C)(C)C(F)(F)F)c1 | 121
* CCCS(=O)(=O)Nc1ccc(F)c(C(=O)c2c[nH]c3ncc(-c4ccc(Cl)cc4)cc23)c1F + CC(Nc1ncnc2nc[nH]c12)c1cc2cccc(Cl)c2c(=O)n1-c1ccccc1 | 84
* CCN1CCN(Cc2ccc(Nc3ncc(F)c(-c4cc(F)c5nc(C)n(C(C)C)c5c4)n3)nc2)CC1 + CC(Nc1ncnc2nc[nH]c12)c1cc2cccc(Cl)c2c(=O)n1-c1ccccc1 | 101

* * *

# Tested on: 624824-186-R-J2-PDC multicell spheroids, viability
# procedureSummary: Anticancer human tumor 624824-186-R-J2-PDC cell line growth inhibition [PI3K];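 note: spheroids exposed to agents for 7 days before viability read; 100% = DMSO vehicle treated spheroids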
# conditionParameters: second compound 0.1 µM; first compound 0.316 µM; hits give low values
Measured viability, T/C of individual entries
valueType: viability, T/C

* CC(Cn1ccc(-c2ccc(C#N)c(Cl)c2)n1)NC(=O)c1cc(C(C)O)[nH]n1 (stereo not given) + Cc1nc(NC(=O)N2CCCC2C(N)=O)sc1-c1ccnc(C(C)(C)C(F)(F)F)c1 | 74.3%
* CC1(C)CCC(Nc2ncc(C(F)(F)F)c(-c3c[nH]c4c(P(C)(C)=O)c(C#N)ccc34)n2)CN1 (stereo not given) + Cc1nc(NC(=O)N2CCCC2C(N)=O)sc1-c1ccnc(C(C)(C)C(F)(F)F)c1 | 99.4%
* CC(C)NCC(C(=O)N1CCN(c2ncnc3c2C(C)CC3O)CC1)c1ccc(Cl)cc1 (stereo not given) + Cc1nc(NC(=O)N2CCCC2C(N)=O)sc1-c1ccnc(C(C)(C)C(F)(F)F)c1 | 85%
* C[C@@H](NC(=O)c1ncnc(N)c1Cl)c1ncc(C(=O)Nc2cc(C(F)(F)F)c(Cl)cn2)s1 + COc1c(OCCCN2CCOCC2)ccc2c3n(c(=NC(=O)c4cnc(N)nc4)nc12)CCN3 | 64.6%
* CCCS(=O)(=O)Nc1ccc(F)c(C(=O)c2c[nH]c3ncc(-c4ccc(Cl)cc4)cc23)c1F + Cc1nc(NC(=O)N2CCCC2C(N)=O)sc1-c1ccnc(C(C)(C)C(F)(F)F)c1 | 61.2%
* CNC(=O)c1ccc(N2C(=S)N(c3ccc(C#N)c(C(F)(F)F)c3)C(=O)C2(C)C)cc1F + CC(Nc1ccc2c(c1)OCCn1cc(N3C(=O)OCC3C(F)F)nc1-2)C(N)=O | 84.8%
* CC1(C)CCC(CN2CCN(c3ccc(C(=O)NS(=O)(=O)c4ccc(NCC5CCOCC5)c([N+](=O)[O-])c4)c(Oc4cnc5[nH]ccc5c4)c3)CC2)=C(c2ccc(Cl)cc2)C1 + CC(Nc1ncnc2nc[nH]c12)c1cc2cccc(Cl)c2c(=O)n1-c1ccccc1 | 91.1%
* CCCS(=O)(=O)Nc1ccc(F)c(C(=O)c2c[nH]c3ncc(-c4ccc(Cl)cc4)cc23)c1F + CC(Nc1ncnc2nc[nH]c12)c1cc2cccc(Cl)c2c(=O)n1-c1ccccc1 | 90%
* C=CC(=O)N1CCN(c2nc(=O)n(-c3c(C)ccnc3C(C)C)c3nc(-c4c(O)cccc4F)c(F)cc23)C(C)C1 (stereo not given) + Cc1nc(NC(=O)N2CCCC2C(N)=O)sc1-c1ccnc(C(C)(C)C(F)(F)F)c1 | 105%
* CCCS(=O)(=O)Nc1ccc(F)c(C(=O)c2c[nH]c3ncc(-c4ccc(Cl)cc4)cc23)c1F + COc1c(OCCCN2CCOCC2)ccc2c3n(c(=NC(=O)c4cnc(N)nc4)nc12)CCN3 | 50%

* * *

# Tested on: 624824-186-R-J2-PDC multicell spheroids, viability
# procedureSummary: Anticancer human tumor 624824-186-R-J2-PDC cell line growth inhibition [PI3K];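 note: spheroids exposed to agents for 7 days before viability read; 100% = DMSO vehicle treated spheroids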
# conditionParameters: second compound 0.316 µM; first compound 3 µM; hits give low values
# Text: Combinatorial screen of targeted agents with the PI3K inhibitors inavolisib, alpelisib, duvelisib, and copanlisib in multi-cell type tumor spheroids A high-throughput screen of multi-cell type tumor spheroids was designed to identify active combinations of targeted small molecules and PI3K pathway inhibitors. […] Compounds. […] If the clinical Cmax for an agent had not been determined, the highest concentration tested was 10 microM. […]
Below is a list of entries, each paired with its recorded viability, T/C value.
valueType: viability, T/C (%)

* Cn1cnc2c(F)c(Nc3ccc(Br)cc3Cl)c(C(=O)NOCCO)cc21 + CC(Nc1ccc2c(c1)OCCn1cc(N3C(=O)OCC3C(F)F)nc1-2)C(N)=O | 50.1
* Cn1cnc2c(F)c(Nc3ccc(Br)cc3Cl)c(C(=O)NOCCO)cc21 + Cc1nc(NC(=O)N2CCCC2C(N)=O)sc1-c1ccnc(C(C)(C)C(F)(F)F)c1 | 66.7
* Cn1cnc2c(F)c(Nc3ccc(Br)cc3Cl)c(C(=O)NOCCO)cc21 + CC(Nc1ncnc2nc[nH]c12)c1cc2cccc(Cl)c2c(=O)n1-c1ccccc1 | 61.2
* Cn1cnc2c(F)c(Nc3ccc(Br)cc3Cl)c(C(=O)NOCCO)cc21 + COc1c(OCCCN2CCOCC2)ccc2c3n(c(=NC(=O)c4cnc(N)nc4)nc12)CCN3 | 2.2

* * *

# System: 624824-186-R-J2-PDC multicell spheroids, viability
# procedureSummary: Anticancer human tumor 624824-186-R-J2-PDC cell line growth inhibition [PI3K];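 note: spheroids exposed to agents for 7 days before viability read; 100% = DMSO vehicle treated spheroids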
# conditionParameters: second compound 0.0316 µM; first compound 0.1 µM; hits give low values
Listed next: entries and their corresponding viability, T/C.
valueType: viability, T/C

• C[C@@H](NC(=O)c1ncnc(N)c1Cl)c1ncc(C(=O)Nc2cc(C(F)(F)F)c(Cl)cn2)s1 + CC(Nc1ncnc2nc[nH]c12)c1cc2cccc(Cl)c2c(=O)n1-c1ccccc1 = 106%
• Cn1nccc1Nc1nccc(-c2ccn(C(CO)c3ccc(Cl)c(F)c3)c(=O)c2)n1 (stereo unspecified) + CC(Nc1ccc2c(c1)OCCn1cc(N3C(=O)OCC3C(F)F)nc1-2)C(N)=O = 71.8%
• CC1(C)CCC(Nc2ncc(C(F)(F)F)c(-c3c[nH]c4c(P(C)(C)=O)c(C#N)ccc34)n2)CN1 (stereo unspecified) + COc1c(OCCCN2CCOCC2)ccc2c3n(c(=NC(=O)c4cnc(N)nc4)nc12)CCN3 = 75.9%
• C[C@@H](NC(=O)c1ncnc(N)c1Cl)c1ncc(C(=O)Nc2cc(C(F)(F)F)c(Cl)cn2)s1 + COc1c(OCCCN2CCOCC2)ccc2c3n(c(=NC(=O)c4cnc(N)nc4)nc12)CCN3 = 93%
• Cn1ncc(Cl)c1-c1cc(C(=O)NC(CN)Cc2cccc(F)c2)sc1Cl (stereo unspecified) + CC(Nc1ccc2c(c1)OCCn1cc(N3C(=O)OCC3C(F)F)nc1-2)C(N)=O = 71.9%
• CC1(C)CCC(CN2CCN(c3ccc(C(=O)NS(=O)(=O)c4ccc(NCC5CCOCC5)c([N+](=O)[O-])c4)c(Oc4cnc5[nH]ccc5c4)c3)CC2)=C(c2ccc(Cl)cc2)C1 + Cc1nc(NC(=O)N2CCCC2C(N)=O)sc1-c1ccnc(C(C)(C)C(F)(F)F)c1 = 93.7%

* * *

# Tested on: 624824-186-R-J2-PDC multicell spheroids, viability
# procedureSummary: Anticancer human tumor 624824-186-R-J2-PDC cell line growth inhibition [PI3K];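 note: spheroids exposed to agents for 7 days before viability read; 100% = DMSO vehicle treated spheroids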
# conditionParameters: compound 3.16 µM; hits give low values
# From the text: Combinatorial screen of targeted agents with the PI3K inhibitors inavolisib, alpelisib, duvelisib, and copanlisib in multi-cell type tumor spheroids A high-throughput screen of multi-cell type tumor spheroids was designed to identify active combinations of targeted small molecules and PI3K pathway inhibitors. […] Compounds. […] If the clinical Cmax for an agent had not been determined, the highest concentration tested was 10 microM. […]
# key: entry, value: viability, T/C
valueType: viability, T/C

• CC1(C)CCC(Nc2ncc(C(F)(F)F)c(-c3c[nH]c4c(P(C)(C)=O)c(C#N)ccc34)n2)CN1 (centres undefined) = 62.5% [middle of 4 runs]
• C#Cc1c(F)ccc2cc(O)cc(-c3ncc4c(N5CC6CCC(C5)N6)nc(OCC56CCCN5CC(F)C6)nc4c3F)c12 (centres undefined) = 84.7% [middle of 4 runs]
• CCCS(=O)(=O)Nc1ccc(F)c(C(=O)c2c[nH]c3ncc(-c4ccc(Cl)cc4)cc23)c1F = 122% [middle of 4 runs]
• C[C@@H](NC(=O)c1ncnc(N)c1Cl)c1ncc(C(=O)Nc2cc(C(F)(F)F)c(Cl)cn2)s1 = 68% [middle of 4 runs]
• CC(Cn1ccc(-c2ccc(C#N)c(Cl)c2)n1)NC(=O)c1cc(C(C)O)[nH]n1 (centres undefined) = 101% [middle of 4 runs]
• Cn1ncc(Cl)c1-c1cc(C(=O)NC(CN)Cc2cccc(F)c2)sc1Cl (centres undefined) = 68.2% [middle of 4 runs]
• Cn1nccc1Nc1nccc(-c2ccn(C(CO)c3ccc(Cl)c(F)c3)c(=O)c2)n1 (centres undefined) = 91.2% [middle of 4 runs]
• CC(C)NCC(C(=O)N1CCN(c2ncnc3c2C(C)CC3O)CC1)c1ccc(Cl)cc1 (centres undefined) = 88.5% [middle of 4 runs]
• CC1(C)CCC(CN2CCN(c3ccc(C(=O)NS(=O)(=O)c4ccc(NCC5CCOCC5)c([N+](=O)[O-])c4)c(Oc4cnc5[nH]ccc5c4)c3)CC2)=C(c2ccc(Cl)cc2)C1 = 67% [middle of 4 runs]
